FYI, the data here is from PubChem BioAssay (NCI).

# TGI per entry
- Test system: A498 renal
- procedureText: NCI tumour cell line growth inhibition, 48 h

Solved entries:
Requested field: TGI. Item: COC(=O)C(Cc1cc(OC)c(OC)c(OC)c1)(NC(=O)c1ccccc1)P(=O)(OC)OC (stereo not given)
> 100 µM

Requested field: TGI. Item: O=c1cc(/C=C/c2ccccc2)c2ccc(O/C(=C\c3ccccc3)c3nc4ccccc4c(=O)o3)cc2o1
> 100 µM

Requested field: TGI. Item: O=C1OCC(CN2CCC(n3c(=O)[nH]c4ccccc43)CC2)=C1c1ccccc1
68.6 µM

Requested field: TGI. Item: COC(=O)C1=CCS(=O)(=O)C1
> 100 µM

---
Requested field: TGI. Item: C[C@@H](Br)[C@@H]1CC[C@H]2c3[nH]c4ccccc4c3CCN2C1
> 100 µM

###

# TGI per entry
- Test system: HS 578T breast
- procedureText: NCI tumour cell line growth inhibition, 48 h

Solved entries:
Requested field: TGI. Item: CCN(CC)C(=O)CCNC(C)Cc1c[nH]c2ccccc12 (stereo not given)
> 100 µM

Requested field: TGI. Item: COc1ccc(-n2cc(-c3ccc(F)cc3)[nH]c2=O)cc1OC
> 100 µM

Requested field: TGI. Item: CC/C(=C(/c1ccc(Cl)cc1)c1ccc(OCCCN(C)C)cc1)c1ccc(OC)cc1
16.9 µM

Requested field: TGI. Item: COc1ccc(-c2nn(C(=O)c3cc(OC)c(OC)c(OC)c3)c3cc(N)ccc23)cc1
39 µM

Requested field: TGI. Item: C=CCOC1=C(OC(C)=O)C(C2COC(C)(C)O2)OC1=O (stereo not given)
> 100 µM

---
Requested field: TGI. Item: Cc1c(OCc2cccc3ccccc23)ccc2c(=O)cc(S)oc12
> 100 µM

Requested field: TGI. Item: C=C(C=O)[C@@H]1CC=C(C=O)CC1
42.4 µM

Requested field: TGI. Item: O=C1CSC2(CC(/C=C/c3ccccc3[N+](=O)[O-])=NN2c2cccc(S(=O)(=O)O)c2)N1c1nc2ccccc2s1 (stereo not given)
> 75 µM

Requested field: TGI. Item: CC(C)[Si](CC1=CCCCC12C(=O)N(COCC[Si](C)(C)C)c1ccccc12)(C(C)C)C(C)C (stereo not given)
> 100 µM

Requested field: TGI. Item: Nc1c(C(=O)Nc2cccc3ccccc23)sc2nc3c(cc12)CCCCCC3
> 50 µM

###

- System: UACC-257 melanoma
- procedureText: NCI tumour cell line growth inhibition, 48 h
# TGI per entry

Requested field: TGI. Item: COc1ccc(/C=C/c2cnnc3ccccc23)cc1OC
> 10 µM

Requested field: TGI. Item: CCOC(=O)CCNC(=O)c1cc(C)cc2c1Oc1c(cc(C)cc1C(=O)NCCC(=O)OCC)S2
> 100 µM

Requested field: TGI. Item: COc1cc(Nc2nccc(-c3cnn4ncccc34)n2)cc(OC)c1
0.48 µM

---
Requested field: TGI. Item: CCN(CC)C(=O)CCNC(C)Cc1c[nH]c2ccccc12 (stereo unspecified)
> 100 µM

Requested field: TGI. Item: c1ccc2c[n+](Cc3ccnc4ccccc34)ccc2c1
> 100 µM

###

# TGI per entry
- Test system: LXFL 529 NSCLC
- procedureText: NCI tumour cell line growth inhibition, 48 h
Numeric only. Scale: µM

Requested field: TGI. Item: CCCCCCCCCCCCCCCc1nc(SCC(=O)O)n[nH]1
66.4

Requested field: TGI. Item: CC12CCC(C)(c3cc(O)c(O)cc31)c1cc(O)c(O)cc12
22.2

Requested field: TGI. Item: NC1=C(O)/C(=N/NS(=O)(=O)c2ccccc2)C(c2cccc(Cl)c2)O1 (centres undefined)
35.8

Requested field: TGI. Item: CCCCCCCCC[C@@H]1C[C@H](O)[C@H](Cc2ccccc2)N1C(=O)OC(C)(C)C
30.9

Requested field: TGI. Item: Nc1c(-c2ccc(-c3c(N)[n+]([O-])c4ccccc4[n+]3[O-])cc2)[n+]([O-])c2ccccc2[n+]1[O-]
35.4

Next up:
Requested field: TGI. Item: O=c1cc(/C=C/c2ccccc2)c2ccc(O/C(=C\c3ccccc3)c3nc4ccccc4c(=O)o3)cc2o1
63.9
